assay.remarks: Cytotoxicity against mouse RAW264.7 cells assessed as induction of cell killing incubated for 24 hrs by alamar blue dye based fluorescence analysis
test.conditions: read-out: ED50
# maps each entry to its CC50 at 24 h

| compound | CC50 at 24 h |
| --- | --- |
| CC(=O)OC[C@@]1(C)[C@@H]2CC[C@]3(C)[C@H](CC=C4[C@@H]5CC(C)(C)CC[C@]5(NC(=O)N5CCCC5)CC[C@]43C)[C@@]2(C)CC[C@@H]1O | 10.9 µM |
| C[C@H](O)[C@H]1OC(C[C@@H]2OC[C@@]3(C)[C@@H]4CC[C@]5(C)[C@H](CC=C6[C@@H]7CC(C)(C)CC[C@]7(C(=O)O)CC[C@]65C)[C@@]4(C)CC[C@@H]3O2)[C@@H](O)[C@@H]1O (stereo partly drawn) | 30.2 µM |
| CC(=O)OC[C@H](OC(C)=O)[C@H](OC(C)=O)[C@@H](OC(C)=O)[C@@H]1OC[C@@]2(C)[C@@H]3CC[C@]4(C)[C@H](CC=C5[C@@H]6CC(C)(C)CC[C@]6(C(=O)O)CC[C@]54C)[C@@]3(C)CC[C@@H]2O1 | 11.1 µM |

---

System: Leishmania mexicana
assay.remarks: Antileishmanial activity against axenic amastigote stage of Leishmania mexicana (MNYC/BZ/62/M379) assessed as induction of parasite killing incubated for 24 hrs by alamar blue dye based fluorescence analysis
Assay type: functional
test.conditions: read-out: ED50 (the source's name)
pEC50: −log10 of the molar value.
Classification field: enter condition met for pEC50 values not below 5, condition not met for values below it.

| line.notation | classification |
| --- | --- |
| CC1(C)CC[C@]2(NC(=O)N3CCC[C@H]3C(=O)O)CC[C@]3(C)C(=CC[C@@H]4[C@@]5(C)CC[C@@H]6OC(C)(C)OC[C@@]6(C)[C@@H]5CC[C@]43C)[C@@H]2C1 | condition met |
| CC1(C)CC[C@]2(NC(=O)NCCN)CC[C@]3(C)C(=CC[C@@H]4[C@@]5(C)CC[C@@H]6OC(C)(C)OC[C@@]6(C)[C@@H]5CC[C@]43C)[C@@H]2C1 | condition not met |
| CC1(C)CC[C@]2(NC(=O)N3CCCC3)CC[C@]3(C)C(=CC[C@@H]4[C@@]5(C)CC[C@H](O)[C@@](C)(CO)[C@@H]5CC[C@]43C)[C@@H]2C1 | condition not met |
| CC1(C)CC[C@]2(C(=O)OCN3C(=O)c4ccccc4C3=O)CC[C@]3(C)C(=CC[C@@H]4[C@@]5(C)CC[C@H](O)[C@@](C)(CO)[C@@H]5CC[C@]43C)[C@@H]2C1 | condition not met |
| COC(=O)[C@H](Cc1c[nH]cn1)NC(=O)N[C@]12CCC(C)(C)C[C@H]1C1=CC[C@@H]3[C@@]4(C)CC[C@@H]5OC(C)(C)OC[C@@]5(C)[C@@H]4CC[C@@]3(C)[C@]1(C)CC2 | condition not met |
| C#CCOC(=O)[C@]12CCC(C)(C)C[C@H]1C1=CC[C@@H]3[C@@]4(C)CC[C@H](O)[C@@](C)(CO)[C@@H]4CC[C@@]3(C)[C@]1(C)CC2 | condition not met |
| C=CCOC(=O)[C@]12CCC(C)(C)C[C@H]1C1=CC[C@@H]3[C@@]4(C)CC[C@H](O)[C@@](C)(CO)[C@@H]4CC[C@@]3(C)[C@]1(C)CC2 | condition not met |
| C[C@H]1O[C@H](C[C@@H]2OC[C@@]3(C)[C@@H]4CC[C@]5(C)[C@H](CC=C6[C@@H]7CC(C)(C)CC[C@]7(C(=O)O)CC[C@]65C)[C@@]4(C)CC[C@@H]3O2)[C@H](O)[C@@H](O)[C@@H]1O | condition not met |
| CN(C)CCCNC(=O)N[C@]12CCC(C)(C)C[C@H]1C1=CC[C@@H]3[C@@]4(C)CC[C@@H]5OC(C)(C)OC[C@@]5(C)[C@@H]4CC[C@@]3(C)[C@]1(C)CC2 | condition not met |
| C[C@H](O)[C@H](O)[C@@H](O)[C@@H](O)[C@@H]1OC[C@@]2(C)[C@@H]3CC[C@]4(C)[C@H](CC=C5[C@@H]6CC(C)(C)CC[C@]6(C(=O)O)CC[C@]54C)[C@@]3(C)CC[C@@H]2O1 | condition not met |
| CC(=O)OC[C@@]1(C)[C@@H]2CC[C@]3(C)[C@H](CC=C4[C@@H]5CC(C)(C)CC[C@]5(NC(=O)N5CCN(C)CC5)CC[C@]43C)[C@@]2(C)CC[C@@H]1O[C@@H]1OC[C@H](OC(C)=O)[C@H](OC(C)=O)[C@H]1O[C@@H]1O[C@@H](C)[C@H](OC(C)=O)[C@@H](OC(C)=O)[C@H]1OC(C)=O | condition not met |
| CC1(C)CC[C@]2(C(=O)O)CC[C@]3(C)C(=CC[C@@H]4[C@@]5(C)CC[C@H](OC(=O)CCC(=O)O)[C@@](C)(COC(=O)CCC(=O)O)[C@@H]5CC[C@]43C)[C@@H]2C1 | condition met |
| CCCOC(=O)[C@]12CCC(C)(C)C[C@H]1C1=CC[C@@H]3[C@@]4(C)CC[C@H](O)[C@@](C)(CO)[C@@H]4CC[C@@]3(C)[C@]1(C)CC2 | condition not met |
